B1: Far upstream element-binding protein 2, residues 142 to 214; numbered along this chain, Q92945 (parent)
chain: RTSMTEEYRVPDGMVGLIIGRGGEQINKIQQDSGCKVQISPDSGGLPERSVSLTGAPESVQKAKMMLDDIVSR

Variants of: B1
Assay: abundance fitness (aPCA) (normalised: wild type 0, dead -1); higher = more abundant; growth selection in yeast, the domain comes from the species named
Conditions: Homo sapiens
# abundance fitness binned as I: < -0.4; II: ≥ -0.4 and < -0.1; III: ≥ -0.1

RTSMTEEYRVPDGMVGLIIGRGGEQINKIQQDSGCKVQISPDSGGLPERSVSLTQAPESVQKAKMMLDDIVSR [G55Q]; I
RTSMTEEYRVPDGMVGLIIGRGGEQINKIQQDSGCKVQISPDSGGLPARSVSLTGAPESVQKAKMMLDDIVSR [E48A]; III
RTSMTEEYRVPDGMVGLIIGRGGEQINKIQQDSGCKVQISPDSGGLPERSVSLTLAPESVQKAKMMLDDIVSR [G55L]; I
RTSMTEEYRVPDGMVGLIIGRGGEQINKIQQDSGCKVQISPDSGGLPERSVSLTGAPESVQKAKMMTDDIVSR [L67T]; I
RTSMTEEYRVPDGMVGLIIGRGGEQINKIQQDSGFKVQISPDSGGLPERSVSLTGAPESVQKAKMMLDDIVSR [C35F]; I
RTSMTEEYRVPDGMVGLIIGRGNEQINKIQQDSGCKVQISPDSGGLPERSVSLTGAPESVQKAKMMLDDIVSR [G23N]; II
RTSMTEEYRVPDGMVGLIIGRGGEQINKIQQDSGCKVQISPDSGGVPERSVSLTGAPESVQKAKMMLDDIVSR [L46V]; II
RTSMTEEYRVPDGMVGLIIGRGGEQINKIQQDSGCKVQISPDSGGLPERSVSLTGAPESVQKAKMQLDDIVSR [M66Q]; II
RTSMTEEYRVPDGMVGLIIGRGGEQINKIQQDSGCKVQISPDSGGLPERSVSLTGAHESVQKAKMMLDDIVSR [P57H]; II
RTSMTEEYRVPDGMVGLIIGRGGEQINKIQQKSGCKVQISPDSGGLPERSVSLTGAPESVQKAKMMLDDIVSR [D32K]; III

Query string: Categorize the following entry: RTSMTEEYRVPDGMVGLIIGRGGEMINKIQQDSGCKVQISPDSGGLPERSVSLTGAPESVQKAKMMLDDIVSR [Q25M]
Result string: II

Query string: Categorize the following entry: RTSMTEEYRVPDGMVGLIIGRGGEQINKIQQDSGCKVQISPDSGGLPERSVSLTGAPASVQKAKMMLDDIVSR [E58A]
Result string: III

Query string: Categorize the following entry: RTSMTEEYRVPDGMVGLIIGRGGEQINKIQQDSGCKVQISPDSGGLVERSVSLTGAPESVQKAKMMLDDIVSR [P47V]
Result string: II

Query string: Categorize the following entry: RTSMTEEYRVPDGMVGLIIGRGGEQINKIQQDSGCKVQISPDSGGLPERSVHLTGAPESVQKAKMMLDDIVSR [S52H]
Result string: III

Query string: Categorize the following entry: RTSMTEEYRVPDGMVGLIIGRGGEQINKIQQDYGCKVQISPDSGGLPERSVSLTGAPESVQKAKMMLDDIVSR [S33Y]
Result string: I

Query string: Categorize the following entry: RTSMTEEYRVPDGMVGLIIGRGGEQINKIQQDSGCKVQISPDSGGFPERSVSLTGAPESVQKAKMMLDDIVSR [L46F]
Result string: III

Query string: Categorize the following entry: RTSMTEEYRVPDGMVGLIIGRGGEQWNKIQQDSGCKVQISPDSGGLPERSVSLTGAPESVQKAKMMLDDIVSR [I26W]
Result string: II

Query string: Categorize the following entry: RTSMTEEYRVPDGMVGLIIGRGGEQINKIQQDSGCKVQISPDSGGLPERSWSLTGAPESVQKAKMMLDDIVSR [V51W]
Result string: I

Query string: Categorize the following entry: RTSMTEEYRVPDGMVGLIIGRGGEQINKIQQDSACKVQISPDSGGLPERSVSLTGAPESVQKAKMMLDDIVSR [G34A]
Result string: II
